Each record here notes measured ∆S.
# system.under.test: EppA (Chelativorans sp. BNC1)
# assay.method.text: Isothermal titration calorimetry of wild-type EppA with chelators and metal chelates
# Type: binding
Give the value in cal mol^−1 K^−1 but do not write cal mol^−1 K^−1 after it.

>>> measured("O=C(O)CN(CCN(CC(=O)O)CC(=O)O)CC(=O)O.[Mg+2] [MgEDTA]")
16.2
>>> measured("O=C(O)CN(CCN(CC(=O)O)CC(=O)O)CC(=O)O.[Sr+2] [SrEDTA]")
27.1
>>> measured("O=C(O)CN(CCN(CC(=O)O)CC(=O)O)CC(=O)O.[Ca+2] [CaEDTA]")
16.0

[Q] Please report the measured ∆S for O=C(O)CN(CCN(CC(=O)O)CC(=O)O)CC(=O)O.[Eu+3] [EuEDTA] tested on EppA (Chelativorans sp. BNC1).
[A] 7.72

[Q] Please report the measured ∆S for O=C(O)CN(CCN(CC(=O)O)CC(=O)O)CC(=O)O.[Cr+3] [CrEDTA] tested on EppA (Chelativorans sp. BNC1).
[A] 30.5

* * *

# system.under.test: R480A EppA mutant (Chelativorans sp. BNC1, UniProt Q11H97, R480A)
# assay.method.text: biochemical
measured.attribute: pKd
On this scale, pKd is minus log10 of a concentration expressed in M (mol/L).

[Q] Give the reported value of pKd for this record: O=C(O)CN(CCN(CC(=O)O)CC(=O)O)CC(=O)O [EDTA, ethylenediaminetetraacetate]
[A] 7.39

* * *

# system.under.test: K470A EppA mutant (Chelativorans sp. BNC1, UniProt Q11H97, K470A)
# Sequence (Q11H97 27-563, stated change not applied): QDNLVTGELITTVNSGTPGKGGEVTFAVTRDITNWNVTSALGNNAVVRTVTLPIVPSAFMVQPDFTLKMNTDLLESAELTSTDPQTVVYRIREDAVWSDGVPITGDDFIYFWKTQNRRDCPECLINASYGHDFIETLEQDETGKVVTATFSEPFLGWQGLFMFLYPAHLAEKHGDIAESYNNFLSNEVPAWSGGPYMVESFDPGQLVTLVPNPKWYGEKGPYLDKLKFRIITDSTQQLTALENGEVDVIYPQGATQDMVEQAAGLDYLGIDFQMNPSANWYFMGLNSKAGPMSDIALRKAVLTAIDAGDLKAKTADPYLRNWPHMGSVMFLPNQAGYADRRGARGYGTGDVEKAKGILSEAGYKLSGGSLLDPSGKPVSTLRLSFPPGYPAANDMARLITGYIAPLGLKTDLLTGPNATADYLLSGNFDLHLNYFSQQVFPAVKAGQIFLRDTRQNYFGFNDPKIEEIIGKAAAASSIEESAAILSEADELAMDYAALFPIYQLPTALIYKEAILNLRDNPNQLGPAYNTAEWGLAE
# assay.method.text: biochemical
measured.attribute: pKd
On this scale, pKd is minus log10 of a concentration expressed in M (mol/L).

[Q] Give the reported value of pKd for this record: O=C(O)CN(CCN(CC(=O)O)CC(=O)O)CC(=O)O [EDTA, ethylenediaminetetraacetate]
[A] 7.57

* * *

# system.under.test: EppA (Chelativorans sp. BNC1, UniProt Q11H97)
# assay.method.text: Isothermal titration calorimetry of wild-type EppA with chelators and metal chelates
# Type: binding
Hi! Just check whether ∆H is below -4 kcal/mol. Below gives criterion met, equal or above gives criterion not met.

>>> class("O=C(O)CN(CCN(CC(=O)O)CC(=O)O)CC(=O)O.[Cr+3] [CrEDTA]")
"criterion not met"

[Q] Dear colleague, could you confirm whether ∆H of O=C(O)CN(CCN(CC(=O)O)CC(=O)O)CC(=O)O.[Sr+2] [SrEDTA] falls below -4 kcal/mol? Thanks.
[A] criterion met

[Q] Dear colleague, could you confirm whether ∆H of O=C(O)CNCCNCC(=O)O [EDDA, ethylenediamine-N,N′-diacetate, reference compound] falls below -4 kcal/mol? Thanks.
[A] criterion not met

[Q] Dear colleague, could you confirm whether ∆H of O=C(O)CN(CCN(CC(=O)O)CC(=O)O)CC(=O)O.[Ca+2] [CaEDTA] falls below -4 kcal/mol? Thanks.
[A] criterion not met

[Q] Dear colleague, could you confirm whether ∆H of O=C(O)CN(CCN(CC(=O)O)CC(=O)O)CC(=O)O.[Tb+3] [TbEDTA] falls below -4 kcal/mol? Thanks.
[A] criterion not met

* * *

# system.under.test: EppA (Chelativorans sp. BNC1, UniProt Q11H97)
# assay.method.text: Isothermal titration calorimetry of wild-type EppA with chelators and metal chelates
# Assay type: binding
# condition.label: ITC, wild-type EppA, 25 °C, single replicate; n.b. = no binding
measured.attribute: ∆H

>>> measured("O=C(O)CN(CCN(CC(=O)O)CC(=O)O)CC(=O)O.[Cd+2]")
"-0.555 ± 0.002 kcal/mol"
>>> measured("O=C(O)CN(CCOCCOCCN(CC(=O)O)CC(=O)O)CC(=O)O.[Sr+2]")
"0.794 ± 0.164 kcal/mol"
>>> measured("O=C([O-])CN(CCN(CC(=O)[O-])CC(=O)[O-])CC(=O)[O-].[Fe+3]")
"n.b."
>>> measured("O=C(O)CN(CCN(CC(=O)O)CC(=O)O)CC(=O)O.[Zn]")
"n.b."
>>> measured("O=C([O-])CN(CCOCCOCCN(CC(=O)O)CC(=O)O)CC(=O)[O-].[Ca+2]")
"n.b."
>>> measured("O=C([O-])CN(CCN(CC(=O)O)CC(=O)O)CC(=O)[O-].[Ba+2]")
"n.b."

[Q] Give the reported value of ∆H for this record: `O=C([O-])CN(CCN(CC(=O)[O-])CC(=O)[O-])CC(=O)[O-].[Co+2]`
[A] n.b.

[Q] Give the reported value of ∆H for this record: `O=C([O-])CN(CCN(CC(=O)[O-])CC(=O)[O-])CC(=O)[O-].[Cu+2]`
[A] n.b.

[Q] Give the reported value of ∆H for this record: `O=C([O-])CN(CCN(CC(=O)[O-])CC(=O)[O-])CC(=O)[O-].[Ni+2]`
[A] n.b.
